Record form. Attribute: Emax. Fill in for each entry.
- system.tested: TGR5 (Homo sapiens, UniProt Q8TDU6)
- Sequence (Q8TDU6 1-330): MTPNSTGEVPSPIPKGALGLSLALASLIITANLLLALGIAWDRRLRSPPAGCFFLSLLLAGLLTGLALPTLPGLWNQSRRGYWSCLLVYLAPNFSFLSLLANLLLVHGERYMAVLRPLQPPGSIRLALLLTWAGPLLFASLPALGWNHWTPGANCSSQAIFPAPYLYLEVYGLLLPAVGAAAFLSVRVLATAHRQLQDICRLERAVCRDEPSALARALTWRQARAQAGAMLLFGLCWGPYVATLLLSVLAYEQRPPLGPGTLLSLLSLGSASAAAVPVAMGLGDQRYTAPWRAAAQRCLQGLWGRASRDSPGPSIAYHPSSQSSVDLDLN
- assay.text: TGR5 activity: cAMP in hTGR5 CHO-k1 cells
- Type: cell-based
- Design: expressed in transfected cells; host or cells: CHO-k1
- condition.notes: CHO, 0.5 h, read-out: hTGR5 CHO Efficacy
One number for each entry, in %.

Worked examples, 3 compounds total:
Task: Look up Emax: CC[C@H]1[C@@H](O)C2C3CC[C@H]([C@H](C)CC(=O)NCCO)[C@@]3(C)CCC2[C@@]2(C)CC[C@@H](O)C[C@@H]12 (some centres unmarked)
Output: 105

Task: Look up Emax: CC[C@H]1[C@@H](O)C2C3CC[C@H]([C@H](C)CCc4nnc(NS(C)(=O)=O)o4)[C@@]3(C)CCC2[C@@]2(C)CC[C@@H](O)C[C@@H]12 (some centres unmarked)
Output: 111

Task: Look up Emax: CC[C@H]1[C@@H](O)C2C3CC[C@H]([C@H](C)C[C@H](CO)C(=O)O)[C@@]3(C)[C@@H](O)CC2[C@@]2(C)CC[C@@H](O)C[C@@H]12 (some centres unmarked)
Output: 43.6

Give one value of Emax per listed compound.
1. CC[C@H]1[C@@H](O)[C@@H]2[C@H](C[C@H](O)[C@]3(C)[C@@H]([C@H](C)C[C@@H](CF)C(=O)O)CC[C@@H]23)[C@@]2(C)CC[C@@H](O)C[C@@H]12
2. CC[C@H]1[C@@H](O)C2C3CC[C@H]([C@H](C)C[C@@H](CO)C(=O)O)[C@@]3(C)[C@@H](O)CC2[C@@]2(C)CC[C@@H](O)C[C@@H]12 (some centres unmarked)

Output:
1: 28; 2: 99
